molecular target: Neuraminidase (Influenza A virus, UniProt B4URF0); test: Inhibition of Influenza A virus (A/Okinawa/42/2004(H1N1)) neuraminidase after 30 mins by fluorescence analysis
Sequence (B4URF0 whole entry): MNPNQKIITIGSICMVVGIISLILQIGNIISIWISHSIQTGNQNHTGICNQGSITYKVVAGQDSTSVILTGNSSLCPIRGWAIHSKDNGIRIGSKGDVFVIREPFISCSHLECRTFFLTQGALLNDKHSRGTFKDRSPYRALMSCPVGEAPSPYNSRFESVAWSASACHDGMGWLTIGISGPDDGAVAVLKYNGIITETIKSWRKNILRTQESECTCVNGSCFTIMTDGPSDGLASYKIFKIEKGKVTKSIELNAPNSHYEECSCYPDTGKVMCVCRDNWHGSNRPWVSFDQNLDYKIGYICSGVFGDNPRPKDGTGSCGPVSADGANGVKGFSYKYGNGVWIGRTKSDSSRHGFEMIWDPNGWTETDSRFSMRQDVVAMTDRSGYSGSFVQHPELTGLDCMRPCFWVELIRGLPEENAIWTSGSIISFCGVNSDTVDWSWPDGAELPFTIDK
measureName: IC50 (nM)
Report as a plain number; the unit nM is understood.

Given item CCCCCCCC(=O)OC[C@@H](O)[C@@H](OC)[C@@H]1OC(C(=O)O)=C[C@H](NC(=N)N)[C@H]1NC(C)=O [LANINAMIVIR OCTANOATE] , the value recorded as its IC50 is 631

* * *

molecular target: UniProt:B4URF0; test: Inhibition of Influenza A virus (A/Yamagata/1/2002(H3N2)) neuraminidase after 30 mins by fluorescence analysis
measureName: IC50 (nM)
Give the quantity in nM, number only.

# compound CCCCCCCC(=O)OC[C@@H](O)[C@@H](OC)[C@@H]1OC(C(=O)O)=C[C@H](NC(=N)N)[C@H]1NC(C)=O [LANINAMIVIR OCTANOATE] ; its IC50 = 56.6
